Cited source for all entries: patent US11746100B2

Molecular target: human ferroportin (Homo sapiens)
Construct: luciferase reporter (read with the Nano-Glo Luciferase Assay System); expressed in transfected cells; host or cells: CHO cells, stably transfected, expression induced with doxycycline
Sequence (Q9NP59 1-571): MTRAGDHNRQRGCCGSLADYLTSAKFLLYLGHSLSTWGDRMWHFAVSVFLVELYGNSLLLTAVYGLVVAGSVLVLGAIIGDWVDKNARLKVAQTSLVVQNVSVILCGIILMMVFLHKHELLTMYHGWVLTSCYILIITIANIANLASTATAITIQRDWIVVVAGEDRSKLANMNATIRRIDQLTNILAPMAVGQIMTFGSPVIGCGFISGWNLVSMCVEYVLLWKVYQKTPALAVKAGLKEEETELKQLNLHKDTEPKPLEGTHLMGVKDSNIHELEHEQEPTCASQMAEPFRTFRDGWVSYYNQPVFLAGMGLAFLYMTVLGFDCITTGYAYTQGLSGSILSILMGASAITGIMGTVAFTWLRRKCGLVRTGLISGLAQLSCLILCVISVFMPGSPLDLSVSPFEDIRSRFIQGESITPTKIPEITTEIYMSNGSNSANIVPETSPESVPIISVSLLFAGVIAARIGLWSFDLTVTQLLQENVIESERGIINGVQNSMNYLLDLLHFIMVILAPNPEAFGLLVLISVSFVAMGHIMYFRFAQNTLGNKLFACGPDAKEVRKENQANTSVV
Assay: Biological in-vitro ferroportin internalization assay (luciferase reporter)
Assay type: cell-based
Settings: average pEC50; stably-transfected CHO cell line expressing human ferroportin tagged to a luciferase reporter; 6 h incubation with test compound
MEASURED_ATTRIBUTE: pEC50

1) O=C(CNc1nc(-c2ccccn2)nc2c1CCC2)Nc1ccccn1 ... 6.2
2) COc1cccnc1-c1nc2c(c(N(C)CC(=O)NC(C)(C)C)n1)CCC2 ... 5.2
3) CN(CC(=O)Nc1cnn(C)c1)c1nc(-c2cc(OCCO)ccn2)nc2c1CCC2 ... 7.6
4) CN(C)CCOc1ccnc(-c2nc3c(c(N(C)CC(=O)NCC(F)(F)F)n2)CCC3)c1 ... 7.6

* * *

Target: human ferroportin (Homo sapiens, UniProt Q9NP59)
Construct: luciferase reporter (read with the Nano-Glo Luciferase Assay System); expressed in transfected cells; host or cells: CHO cells, stably transfected, expression induced with doxycycline
Sequence (Q9NP59 1-571): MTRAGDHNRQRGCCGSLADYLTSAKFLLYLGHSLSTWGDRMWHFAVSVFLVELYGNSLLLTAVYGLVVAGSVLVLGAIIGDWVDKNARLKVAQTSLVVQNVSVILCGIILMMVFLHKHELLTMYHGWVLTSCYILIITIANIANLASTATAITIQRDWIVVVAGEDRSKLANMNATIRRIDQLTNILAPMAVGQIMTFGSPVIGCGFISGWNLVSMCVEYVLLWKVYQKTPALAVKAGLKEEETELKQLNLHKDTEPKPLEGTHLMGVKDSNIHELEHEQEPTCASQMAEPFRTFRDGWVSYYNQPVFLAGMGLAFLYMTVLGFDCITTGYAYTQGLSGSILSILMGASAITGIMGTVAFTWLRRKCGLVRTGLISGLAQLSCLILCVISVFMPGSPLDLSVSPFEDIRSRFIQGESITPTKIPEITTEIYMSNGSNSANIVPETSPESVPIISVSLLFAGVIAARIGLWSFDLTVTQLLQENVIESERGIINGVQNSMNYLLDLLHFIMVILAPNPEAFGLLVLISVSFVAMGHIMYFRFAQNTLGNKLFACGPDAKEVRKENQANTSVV
Experiment: Biological in-vitro ferroportin internalization assay (luciferase reporter)
Type: cell-based
Conditions: average pEC50; stably-transfected CHO cell line expressing human ferroportin tagged to a luciferase reporter; 6 h incubation with test compound
# pEC50 per record follows
MEASURED_ATTRIBUTE: pEC50

1. COc1ccnc(-c2nc3c(c(N(C)CC(=O)N4CC[C@@H](O)C4)n2)CCC3)c1 [Compound 471] ... 7.4
2. CN(CC(=O)NC(C)(C)CO)c1nc(-c2cn(CCCO)cn2)nc2c1CCC2 [Compound 275] ... 7
3. COc1ccnc(-c2nc3c(c(N(C)CC(=O)NC4COC4)n2)CCC3)c1 [Compound 373] ... 7.3
4. COc1ccnc(-c2nc3c(c(N(C)CC(=O)NC4CCCCC4)n2)CCC3)c1 [Compound 137] ... 7.8
5. CSCC[C@H](C(=O)NC(C)(C)C)N(C)c1nc(-c2cc(OC(F)F)ccn2)nc2c1CCC2 [Compound 212] ... 7.1
6. CN(CC(=O)N1CCCC1)c1nc(-c2cc(OCC(C)(C)O)ccn2)nc2c1CCC2 [Compound 420] ... 8
7. CN(CC(=O)Nc1cccc(F)c1)c1nc(-c2cc(OCCO)ccn2)nc2c1CCC2 [Compound 167] ... 7.9
8. Cc1cccnc1-c1nc2c(c(N(C)CC(=O)NC(C)(C)C)n1)CCC2 [Compound 103] ... 6.4
